In this section, each of the molecules is paired with its reported inhibition.
Biological target: Solute carrier family 2, facilitated glucose transporter member 1 (Homo sapiens) (UniProt P11166)
Sequence (P11166 whole entry): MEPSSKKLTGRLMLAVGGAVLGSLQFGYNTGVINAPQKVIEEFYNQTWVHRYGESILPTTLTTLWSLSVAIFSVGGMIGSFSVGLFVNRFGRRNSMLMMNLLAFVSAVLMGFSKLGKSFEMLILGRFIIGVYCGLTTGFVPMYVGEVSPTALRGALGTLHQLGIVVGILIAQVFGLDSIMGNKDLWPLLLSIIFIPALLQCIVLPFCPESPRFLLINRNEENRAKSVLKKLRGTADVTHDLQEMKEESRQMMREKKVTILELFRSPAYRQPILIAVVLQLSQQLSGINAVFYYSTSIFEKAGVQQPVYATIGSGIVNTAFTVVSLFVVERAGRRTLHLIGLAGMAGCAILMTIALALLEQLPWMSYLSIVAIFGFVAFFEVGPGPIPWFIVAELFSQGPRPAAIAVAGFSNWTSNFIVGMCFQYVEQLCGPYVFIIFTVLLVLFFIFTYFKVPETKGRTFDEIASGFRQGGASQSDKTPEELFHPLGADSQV
Test: ST_JUDE_LEISH: Cytotoxicity at 2uM final concentration against transgenic Leishmania Mexicana promastigotes LmGLUT1 that are glucose transport deficient and complemented with the human glucose transporter GLUT1. Activity is measured by DNA content using SYBR green in vitro
Format: functional

MOLECULE	inhibition / %
CC(C)CN1CCCN(Cc2cccc(NC(=O)c3cc4ccccc4s3)c2)CC1	-0.04
CCOC(=O)C(C(=O)OCC)c1nc(C)ns1	-1.35
CCC1N=C(N)N=C(N)N1OCc1cccc2ccccc12 (stereo not given)	1.74
CCc1c(C(=O)NC2CCC(N3CCC(c4ccccc4OC)CC3)CC2)[nH]c2ccc(Br)cc12 (stereo not given)	0.33
c1ccc2[nH]c(-c3ccc(-c4ccc(CN5CCCCC5)cc4)s3)nc2c1	0.97
COc1ccccc1N1CCN(Cc2c(NC(C)=O)sc(C)c2C)CC1	0.73
COc1ccc(CNC(=O)Nc2cccc(-c3csc(NC(=N)N)n3)c2)cc1	-2.22
CCc1cn2c3c(cc(C(=O)N[C@@H](Cc4cccc(Cl)c4)[C@H](O)CNC4CCCCC4)cc13)N(C)S(=O)(=O)CC2	-0.29
CCN(C(=O)c1ccc(NC(=O)c2cccs2)cc1)c1nc2c(C)cccc2s1	1.43
CN(C)CCCOc1ccccc1CN1CC[C@H](NC(=O)c2ccc(Cl)c(Cl)c2)C1	-0.17
COc1ccc(CNCc2ccccc2)cc1-c1ccc(S(=O)(=O)NCCN2CCCC2)s1	1.43
O=C(c1ccc(-c2cccc(-c3nc4cc(C(F)(F)F)ccc4[nH]3)c2)cc1)N1CCCCC1CN1CCC(O)C1 (stereo not given)	-0.47
O=c1cc(NCCCNCc2sc(Br)nc2Br)[nH]c2ccccc12	3.62
CCCCCC(C)N/C(=N/c1cccc(Cl)c1Cl)Nc1ccc(C#N)cc1O (stereo not given)	5.91
Cc1ccc(CNC(=O)[C@H](Cc2ccccc2)Nc2cc(C)nc(Nc3ccccc3)n2)cc1	7.2
Cc1cccc2nc(-c3ccc(-c4cccc(NC(=O)CCc5c[nH]cn5)c4)s3)[nH]c12	3.85
COc1ccccc1N=C1SC(=Cc2cn(CC(=O)N3CCCc4ccccc43)c3ccccc23)C(=O)N1C1CCCCC1	2.84
COc1ccccc1/C=C/C(=O)NC1CCC(CCN2CCc3ccc(-c4cc(C)no4)cc3CC2)CC1 (stereo not given)	3.11
O=C(CSc1nnc(O)n1Cc1ccccc1)Nc1ccccc1-c1ccccc1	5.26
Cc1oc(-c2ccccc2)nc1CCOc1ccc(C[C@H](Nc2ccccc2C(=O)c2ccccc2)C(=O)NCc2ccccn2)cc1	4.4
